- experimentalSystem: CB1 receptor (Mus musculus, UniProt P47746)
- Construct: from tissue; host or cells: mouse vas deferens (isolated tissue preparation)
- Sequence (P47746 whole entry): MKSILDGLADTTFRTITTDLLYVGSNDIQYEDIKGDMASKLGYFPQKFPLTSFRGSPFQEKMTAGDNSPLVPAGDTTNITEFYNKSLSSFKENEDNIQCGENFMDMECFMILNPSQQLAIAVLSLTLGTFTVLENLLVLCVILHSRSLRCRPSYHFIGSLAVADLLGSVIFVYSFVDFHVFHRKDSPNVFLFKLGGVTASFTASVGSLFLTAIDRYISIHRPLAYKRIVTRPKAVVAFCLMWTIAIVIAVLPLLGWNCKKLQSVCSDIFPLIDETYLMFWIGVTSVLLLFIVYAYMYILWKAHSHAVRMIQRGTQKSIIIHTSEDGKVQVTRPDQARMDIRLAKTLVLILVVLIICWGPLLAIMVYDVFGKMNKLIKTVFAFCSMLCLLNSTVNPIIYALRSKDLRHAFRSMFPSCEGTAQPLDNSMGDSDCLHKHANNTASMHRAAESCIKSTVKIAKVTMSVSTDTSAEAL
- protocolSummary: vas deferens inhibition of contractions (cannabinoid receptor modulating activity)
- cond: mouse vas deferens preparation, FIG. 1; read-out: IC50, vas deferens preparation
readoutName: IC50

# compound, experimentalSystem, readoutName, resultValue
records = [
    ("CC(CO)NC(=O)c1cccc(/C=C\\CCCC(=O)N(C)C)c1 (racemic)", "CB1 receptor (Mus musculus, UniProt P47746)", "IC50", "~1 nM"),
]
